# test-target: high affinity nicotinic receptors
# experimental-details: Inhibition of L-[3H]nicotine binding to mouse brain membrane preparations
# assay-setup: mouse brain membranes, 2 hr at 4° C., 10 nM L-[3H]nicotine, Ki calculated from IC50 by the method of Cheng et al.
Listing: Ki of selected compounds
assay-endpoint: Ki (nM)

>>> numeric_readout("CN1CC2CC(C1)c1cccc(=O)n1C2 (centres unmarked)")
36
>>> numeric_readout("O=c1cccc2n1C[C@@H]1CNC[C@H]2C1")
0.4
